Entry source: ChEMBL document CHEMBL1201862

Test system: HT-29
Assay: NCI tumour cell line growth inhibition, 48 h
Activity calls are given as the source filed them. Rule as the data show it: active = GI50 up to about 1.1 µM and inactive = higher.
# GI50 per record follows
readout name: GI50

> print(dat)
                                    compound  experimental.result
 1         O=C(CCl)Nc1ccc(-c2nc3ccccc3s2)cc1   2.39 µM (inactive)
 2  C=C1C[C@@H](O)[C@@H](Br)C(C)(C)[C@]12CCC(C)(Br)C(Cl)C2 (stereo partly specified)    6.1 µM (inactive)
 3       CCCCc1ccc(Nc2ncc3ncn(COCCO)c3n2)cc1   21.8 µM (inactive)
 4  Cc1ccc2c3c1O[C@H]1c4[nH]c5ccccc5c4C[C@@]4(O)[C@@H](C2)N(C)CC[C@]314   11.5 µM (inactive)
 5  COc1cc2c(cc1OC)[C@@H]1[C@H](C#N)C(=O)C(C)(C)N1CC2  > 100 µM (inactive)
 6  C[C@]12C[C@H](c3ccccc3)Nc3ccccc3N1C(c1ccccc1)=NO2   55.2 µM (inactive)
 7  COc1ccc(C2SCC(=O)N2NC(=O)C(C)Oc2ccccc2C)cc1 (stereo unspecified)   95.9 µM (inactive)
 8                     N#Cc1nc(-c2cccs2)oc1N  > 100 µM (inactive)
 9                N#Cc1nc(/C=C/c2cccnc2)oc1N  > 100 µM (inactive)
10  O=C1N[C@@H]2O[C@H](CNC(=O)c3cc(Br)c[nH]3)C[C@]2(O)N1.O=C1N[C@H]2O[C@H](CNC(=O)c3cc(Br)c[nH]3)C[C@@]2(O)N1  > 100 µM (inactive)
11  CCC(=O)Nc1ccc(/N=C/c2cccc(Oc3ccccc3)c2)cc1   49.2 µM (inactive)
12  CCC1=CC(OCc2ccccc2)C(CCN(Cc2ccccc2)C(=O)OCc2ccccc2)C1 (stereo unspecified)   17.9 µM (inactive)
13       COc1cc(CC(=O)O)c([N+](=O)[O-])cc1OC  > 100 µM (inactive)
14  CC(=O)OC12CC(C(F)(F)F)(C(F)(F)F)OC1(OC(C)=O)CC(C(F)(F)F)(C(F)(F)F)O2 (stereo unspecified)   5.28 µM (inactive)
15  N#Cc1c(N2CCN(c3ccc([N+](=O)[O-])cc3)CC2)[n+]([O-])c2ccccc2[n+]1[O-]  > 100 µM (inactive)
16     C/C(=N\Nc1nc2ccccc2s1)c1cccc[n+]1[O-]   41.5 µM (inactive)
17  O=[N+]([O-])/C(C(Cl)=C(Cl)Cl)=C(\Nc1cccc2ccccc12)n1nnc2ccccc21   63.5 µM (inactive)
18  C[C@]12CC[C@H](O)CC1=CC[C@@H]1C2CC[C@]2(C)Nc3c(cnn3-c3ccccc3)CC12 (stereo partly specified)   1.89 µM (inactive)
19  O=C(Nc1cc(Cl)c(Cl)cc1Cl)C(=O)C(C(=O)c1ccccc1)C1OC(=O)c2ccccc21 (stereo unspecified)  > 100 µM (inactive)
20  COc1cc(/C=C/C(=O)c2sc(NNC(C)=O)nc2C)ccc1O  > 100 µM (inactive)
21                    O=C(O)CCNCCCCNCCC(=O)O  > 100 µM (inactive)
22  CCOC(OCC)C(CC)[Se]c1ccccc1[N+](=O)[O-] (stereo unspecified)   2.39 µM (inactive)
23  On1c(-c2ccccc2)c(-c2c(-c3ccccc3)n(O)c3ccccc23)c2ccccc21   45.7 µM (inactive)
24  CC(C)OP(=O)(OC(C)C)c1ncn(-c2ccc([N+](=O)[O-])cc2)n1  > 100 µM (inactive)
25  Nc1c(S(=O)(=O)O)cc(S(=O)(=O)O)c2ccc(/N=N/c3ccccc3)c(O)c12  > 100 µM (inactive)
26  Clc1ccc(C2=NN=C3C(c4ccccc4)=Nc4ccccc4N3C2)cc1   3.01 µM (inactive)
27           Cc1nc(-c2ccccc2)cn2c1nc1ccccc12   24.3 µM (inactive)
28  CC(NNC(=O)c1ccncc1)c1ccc(F)cc1 (stereo unspecified)  > 100 µM (inactive)
29  COC(=O)c1ccc2c(c1)CC1(C2)Cc2cc3c(cc2C1)CCC3  > 100 µM (inactive)
30                   CN1CCc2[nH]c3ccccc3c2C1  > 100 µM (inactive)
31  CCOC(=O)C1(C(=O)OCC)C[C@]23OCCC(=O)[C@H]2[C@H]2C(=O)OC(C)(C)O[C@]23C1  > 100 µM (inactive)
32  CC(C)(C)[Si](C)(C)Oc1ccc(C2CNC(=O)C23CCC(=O)N3Cc2ccccc2)cc1 (stereo unspecified)   12.2 µM (inactive)
33  CCOC1=C2N=C(Cc3ccccc3F)N=C2C(=O)c2ccccc21  > 100 µM (inactive)
34   C#CCOC(=O)C(N)CCSC (stereo unspecified)  > 100 µM (inactive)
35  Cc1ccc(NC(=O)NC(=O)c2ccc([N+](=O)[O-])cc2[N+](=O)[O-])cc1Oc1ncc(Cl)cn1      0.3 µM (active)
36  CCCCn1c(C)c(C(=O)OCC)c2cc(OCc3ccc(C(=O)Nn4c(C)ccc4C)cc3)c(Br)cc21  > 100 µM (inactive)
